target: spike protein of SARS-CoV-2 α strain on pseudovirus (SARS-CoV-2 (α strain)); assay: cell-based or functional assay
Readout Name: IC50 of pseudovirus infection (luciferase) (µg/mL)
Numbers only, in µg/mL.

# annotated cases, reported IC50 of pseudovirus infection (luciferase) shown
Ab326 (antibody, V domains shown) VH: EVQLVESGGGVVQPGRSLRLSCAASGFTFSHYPMHWVRQAPGRGLEWVAVISYDGSNQHYVDSVKGRFTISRDNSKNTLYLQMNSLRAEDTAVYFCASLITMIRGVPDYWGQGTLVTVSS VL: DIQMTQSPSSLSASVGDRVTITCRASQSISNYLNWYQQKPGKAPNLLIFAASSLQSGVPSRFSGSGSGTEFTLTISSLQPEDFAAYYCLQTYSTPRTFGQGTRLEIK; 0.0493
Ab709TK (antibody, V domains shown) VH: QVQLVESGGGVVQPGKSLRLSCAASGFTFSSYAMHWVRLAPGKGLEWVAVISPDGKNKYYVDSVKGRSTISRDNSKNTLYLLMNSLRAEDTAVYYCATTQSLWFGQFYYIYGMDVWGQGTTVTVSS VL: QSVLTQPHSVSESPGKTITISCTGSSGSIASNYVQWYQQRPGSAPTTVIYEDTERPSGVPDRFSGSIDSSSNSASLTISGLKTEDEADYYCQSYDSNNVVFGGGTKLTVL; 0.236
Ab864 (antibody, V domains shown) VH: EVQLVESGGGLVQPGRSLRLSCAASGFTFDDYAMHWVRQVPGKGLEWVSGISWNKGNIDYADSVKGRFTISRDNAKNSLYLQMNSLRPEDTGLYYCAKDCHYDSPGYFPNCLHSWGQGTLVTVSS VL: EIVMTQSPSSLSASVGDRVTITCRASQGINTYLAWYQQKPGKAPKLLIYTASTLQSGVPSRFSGSGSGTDFTLTISSLQPEDFATYYCQQVHSYPLTFGGGTKVEIK; 0.0098
Ab803 (antibody, V domains shown) VH: EVQLVESGGGLVQPGRSLRVSCAASGFTFDDYAMHWVRQTPRKGLEWVAGISRNSAAIAYADSVKGRFTISRDNAKNSVFLQMNGLRADDTALYYCVKSPRYGWGSPDYSFDFWGRGTLVTVSS VL: DIQLTQSPSSLSASVGDRVTITCRASQNIGTYLNWYQQEPGKAPKLLIYAASSLQSGVPSRFSGSGSGTDFTLTISSLQPEDFATYCCQQSFTTPLTFGQGTKVEIK; 0.402
Ab159 (antibody, V domains shown) VH: QVQLVESGGGLVKPGGSLRLSCAASGFTFNNAWMSWVRQAPGKGLEWVGRIKSKTDGGTTDYAAPVKGRFTFSRDDSKNTLYLQMSSLKTEDTALYYCTTADYDILTGTPASPYWGQGTLVTVSS VL: DIQMTQSPSSLSASVGDRVTITCRASQSITNYLNWYQQKPGKAPKFLIYAASSLQGGVPSRFRGSGSGTDFTLTISSLQPEDFATYYCQQTYSTLWTFGQGTKVEIK; 0.0119

Dear colleague, could you please provide IC50 of pseudovirus infection (luciferase) for the binders listed below?
1. Ab863 (antibody, V domains shown) VH: EVQLVQSGAEVKKPGASVKVSCQASGYTFITYYMHWVRQAPGQGLEWMGIINPDGGSISYAQKFQGRVTMTRDTSTSTVYMELSSLRSEDTAVYYCARGLSPTFSSSWFDNWGLGTLVTVSS VL: DVVMTQSPATLSVSPGERATLSCRASQSVSSNLAWYQQKPGQAPRLLIYGASTRDTGIPARFSGSGSGTEFTLTISSLQSEDFAVYFCQQYKNWLLTFGGGTKVEIK
2. Ab847 (antibody, V domains shown) VH: EVQLVQSGAEVKKPGASVKVSCKASGYTFTSYDIIWVRQATGQGLEWMGWMDPSRGTTGYAQTFQGRVTMTRDTSISTAYLELNSLTSEDTAVYYCVAHIVVLDRWFDPWGQGTLVTVSS VL: DIVMTQSPSSLSASVGDRVTITCQASQDIGNFLNWCQQKPGQAPKVLIYGASNLETGVPSRFSGSGSGTDFTFTISSLQPEDIATYYCQHYDNFPPRFTFGQGTKLDIK
3. Ab816 (antibody, V domains shown) VH: QVQLVQSGAEVKKPGESLMISCKASGYNFRNYWIAWVRQMPGKGLEWMGIIHPGDSDIRYRPSLQGHVTISADKSITTAYLQWGSLKASDTAMYYCTRITTDADSSGLFHYWGQGTLVTVSS VL: EIVLTQSPSTLSASVGDRVTITCRASQNIYTWLAWYQRKPGKAPKVLIYKASSLESGVPSRFSGSGSGTEFTLTISSLQPDDFATYYCQQYKSAWSFGQGTKVEIK
4. Ab354 (antibody, V domains shown) VH: QVQLVQSGAEVKKPGASVTVSCKASGFLFTGYYMHWVRQAPGQGLEWMGWINPNSGASNYTRKFQGRVTMTRDTSISATYMKLSRLTSDDTAVYYCARDLAFSMVRGALDYWGQGTLVTVSS VL: QLVLTQPPSASGSPGQSVTISCTGTSSDVGGYNYVSWYQHHPGKAPKLMIYEVSKRPSGVPDRFSGSKSGNTASLTVSGLQAEDEADYYCNSYAGNNNWVFGTGTKVTVL

0.0301
0.0821
0.0175
0.0937

// IC50 of pseudovirus infection (luciferase) lookup, key: Ab712 (antibody, V domains shown) VH: QVQLVQSGSELKKPGASVKISCKASGYTFINHAINWVRQAPGQGLEWMGWINTNTGNPTYAPGFTGRFVFSLDTSVSTAYLQISSLKAEDTAVYYCARIPIRDYDYDGSGYYYFLDYWGQGTLVTVSS VL: SYELTQDPAVSVALGQTVRITCQGDSLRSSSASWYQQKPGQAPVLVIYGKTNRPSGIPDRFSGSSSGNTASLTITGAQAEDEADYYCNSRDNSGNHPVVFGGGTKLTVL
0.103
